All figures here come from patent US20230134571A1.

Biological target: HIV Env of isolate 249MB10 (clade C) (HIV)
Test: cell-based or functional assay
readout: IC50 (µg/ml) with constrains (µg/mL)
Numbers only, in µg/mL.

Lab note: ePGDM9 (antibody, V domains shown) VH: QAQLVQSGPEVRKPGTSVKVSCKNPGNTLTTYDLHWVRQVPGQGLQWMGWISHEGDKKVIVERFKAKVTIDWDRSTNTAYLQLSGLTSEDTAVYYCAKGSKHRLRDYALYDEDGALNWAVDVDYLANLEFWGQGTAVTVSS VL: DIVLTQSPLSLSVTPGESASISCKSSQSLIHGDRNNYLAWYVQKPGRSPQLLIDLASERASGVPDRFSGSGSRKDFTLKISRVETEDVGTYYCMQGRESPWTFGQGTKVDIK gave IC50 (µg/ml) with constrains of 0.007
